- test_protocol: AUC (0 to infinity) in Sprague-Dawley rat at 40 mg/kg, po
- Type: ADME, organism-based
- Set-up: dose 40 mg/kg, route oral
- condition_description: plasma, read-out: AUBC

# chemical_structure, AUC, ng·h/mL
records = [
    ("COc1ccc2c(O[C@@H]3C[C@H]4C(=O)N[C@]5(C(=O)NS(=O)(=O)C6CC6)C[C@H]5/C=C\\CCCCN(C)C(=O)[C@@H]4C3)cc(-c3nc(C(C)C)cs3)nc2c1C", 7750),
]

----------
- test_protocol: Ratio of AUC (0 to 31 hrs) in Sprague-Dawley rat spleen to AUC (0 to 31 hrs) in Sprague-Dawley rat plasma at 40 mg/kg, po administered as single dose
- Assay type: ADME, organism-based
- Set-up: dose 40 mg/kg, route oral

# chemical_structure, Kp
measured = [
    ("COc1ccc2c(O[C@@H]3C[C@H]4C(=O)N[C@]5(C(=O)NS(=O)(=O)C6CC6)C[C@H]5/C=C\\CCCCN(C)C(=O)[C@@H]4C3)cc(-c3nc(C(C)C)cs3)nc2c1C", 0.3),
]

----------
- test_protocol: AUC (0 to 24 hrs) in Sprague-Dawley rat at 4 mg/kg, iv
- Assay type: ADME, organism-based
- Design: time < 24 hr, dose 4 mg/kg, route intravenous
- condition_description: plasma

# chemical_structure, AUC(0-t) at 24 h (ng·h/mL)
records = [
    ("COc1ccc2c(O[C@@H]3C[C@H]4C(=O)N[C@]5(C(=O)NS(=O)(=O)C6CC6)C[C@H]5/C=C\\CCCCN(C)C(=O)[C@@H]4C3)cc(-c3nc(C(C)C)cs3)nc2c1C", 1740),
]

----------
- test_protocol: Cytotoxicity against human MRC5 cells after 3 to 4 days by resazurin proliferation assay
- Assay type: cell-based
property: CC50 (µM)

# chemical_structure, measurement_unit, numeric_result
data = [
    ("COc1ccc2c(O[C@@H]3C[C@H]4C(=O)N[C@]5(C(=O)NS(=O)(=O)C6CC6)C[C@H]5/C=C\\CCCCN(C)C(=O)[C@@H]4C3)cc(-c3nc(C(C)C)cs3)nc2c1C", "µM", 16),
]

----------
- test_protocol: Apparent volume of distribution at steady-state in Sprague-Dawley rat at 4 mg/kg, iv
- Assay type: ADME, organism-based
- Design: dose 4 mg/kg, route intravenous
- condition_description: in vivo
property: Vd

# compound, property, result
rows = [
    ("COc1ccc2c(O[C@@H]3C[C@H]4C(=O)N[C@]5(C(=O)NS(=O)(=O)C6CC6)C[C@H]5/C=C\\CCCCN(C)C(=O)[C@@H]4C3)cc(-c3nc(C(C)C)cs3)nc2c1C [SIMEPREVIR]", "Vd", "5.3 L/kg"),
]

----------
- test_protocol: Ratio of AUC (0 to 31 hrs) in Sprague-Dawley rat lung to AUC (0 to 31 hrs) in Sprague-Dawley rat plasma at 40 mg/kg, po administered as single dose
- Type: ADME, organism-based
- Parameters: dose 40 mg/kg, route oral

# chemical_structure, Kp
rows = [
    ("COc1ccc2c(O[C@@H]3C[C@H]4C(=O)N[C@]5(C(=O)NS(=O)(=O)C6CC6)C[C@H]5/C=C\\CCCCN(C)C(=O)[C@@H]4C3)cc(-c3nc(C(C)C)cs3)nc2c1C", 0.5),
]

----------
- test_protocol: Cytotoxicity against human MT4 cells after 3 to 4 days by resazurin proliferation assay
- Assay type: cell-based

# molecule, CC50 [µM]
measured = [
    ("COc1ccc2c(O[C@@H]3C[C@H]4C(=O)N[C@]5(C(=O)NS(=O)(=O)C6CC6)C[C@H]5/C=C\\CCCCN(C)C(=O)[C@@H]4C3)cc(-c3nc(C(C)C)cs3)nc2c1C [SIMEPREVIR]", 16),
]

----------
- test_protocol: Tmax in Sprague-Dawley rat large intestine
- Format: ADME, tissue-based

# chemical_structure, Tmax (h)
rows = [
    ("COc1ccc2c(O[C@@H]3C[C@H]4C(=O)N[C@]5(C(=O)NS(=O)(=O)C6CC6)C[C@H]5/C=C\\CCCCN(C)C(=O)[C@@H]4C3)cc(-c3nc(C(C)C)cs3)nc2c1C", 8),
]

----------
- test_protocol: Tmax in Sprague-Dawley rat plasma at 40 mg/kg, po upto 31 hrs
- Format: ADME, organism-based
- Design: dose 40 mg/kg, route oral

# chemical_structure, Tmax, h
rows = [
    ("COc1ccc2c(O[C@@H]3C[C@H]4C(=O)N[C@]5(C(=O)NS(=O)(=O)C6CC6)C[C@H]5/C=C\\CCCCN(C)C(=O)[C@@H]4C3)cc(-c3nc(C(C)C)cs3)nc2c1C", 2),
]

----------
- test_protocol: Ratio of AUC (0 to 31 hrs) in Sprague-Dawley rat kidney to AUC (0 to 31 hrs) in Sprague-Dawley rat plasma at 40 mg/kg, po administered as single dose
- Format: ADME, organism-based
- Design: dose 40 mg/kg, route oral
property: Kp

# compound, numeric_result
rows = [
    ("COc1ccc2c(O[C@@H]3C[C@H]4C(=O)N[C@]5(C(=O)NS(=O)(=O)C6CC6)C[C@H]5/C=C\\CCCCN(C)C(=O)[C@@H]4C3)cc(-c3nc(C(C)C)cs3)nc2c1C [SIMEPREVIR]", 0.5),
]

----------
- test_protocol: Cmax in Sprague-Dawley rat plasma at 40 mg/kg, po upto 31 hrs by liquid chromatography-tandem mass spectrometry
- Type: ADME, organism-based
- Parameters: dose 40 mg/kg, route oral
property: Cmax (ng/mL)

# compound, numeric_result
rows = [
    ("COc1ccc2c(O[C@@H]3C[C@H]4C(=O)N[C@]5(C(=O)NS(=O)(=O)C6CC6)C[C@H]5/C=C\\CCCCN(C)C(=O)[C@@H]4C3)cc(-c3nc(C(C)C)cs3)nc2c1C [SIMEPREVIR]", 1430),
]

----------
- test_protocol: Ratio of AUC (0 to 31 hrs) in Sprague-Dawley rat liver to AUC (0 to 31 hrs) in Sprague-Dawley rat plasma at 40 mg/kg, po administered as single dose
- Assay type: ADME, organism-based
- Parameters: dose 40 mg/kg, route oral
- condition_description: read-out: Ratio AUC

# chemical_structure, Kp
rows = [
    ("COc1ccc2c(O[C@@H]3C[C@H]4C(=O)N[C@]5(C(=O)NS(=O)(=O)C6CC6)C[C@H]5/C=C\\CCCCN(C)C(=O)[C@@H]4C3)cc(-c3nc(C(C)C)cs3)nc2c1C", 39),
]

----------
- test_protocol: Absolute bioavailability in Sprague-Dawley rat at 40 mg/kg, po
- Assay type: ADME, organism-based
- condition_description: in vivo

# compound, measurement_unit, bioavailability
measured = [
    ("COc1ccc2c(O[C@@H]3C[C@H]4C(=O)N[C@]5(C(=O)NS(=O)(=O)C6CC6)C[C@H]5/C=C\\CCCCN(C)C(=O)[C@@H]4C3)cc(-c3nc(C(C)C)cs3)nc2c1C [SIMEPREVIR]", "%", 44),
]

----------
- test_protocol: Cytotoxicity against human HuH7 cells infected with Hepatitis C virus subtype 1b after 3 to 4 days by resazurin proliferation assay
- Assay type: cell-based, Huh-7
property: CC50

# compound, property, result
records = [
    ("COc1ccc2c(O[C@@H]3C[C@H]4C(=O)N[C@]5(C(=O)NS(=O)(=O)C6CC6)C[C@H]5/C=C\\CCCCN(C)C(=O)[C@@H]4C3)cc(-c3nc(C(C)C)cs3)nc2c1C [SIMEPREVIR]", "CC50", "47 µM"),
]

----------
- test_protocol: Ratio of AUC (0 to 31 hrs) in Sprague-Dawley rat large intestine to AUC (0 to 31 hrs) in Sprague-Dawley rat plasma at 40 mg/kg, po administered as single dose
- Assay type: ADME, organism-based
- Parameters: dose 40 mg/kg, route oral
- condition_description: read-out: Ratio AUC
property: Kp

# chemical_structure, property, numeric_result
data = [
    ("COc1ccc2c(O[C@@H]3C[C@H]4C(=O)N[C@]5(C(=O)NS(=O)(=O)C6CC6)C[C@H]5/C=C\\CCCCN(C)C(=O)[C@@H]4C3)cc(-c3nc(C(C)C)cs3)nc2c1C", "Kp", 29),
]

----------
- test_protocol: Half life (8 to 24 hrs) in Sprague-Dawley rat plasma at 4 mg/kg, iv
- Format: ADME, organism-based
- Design: dose 4 mg/kg, route intravenous
property: half-life (h)

# chemical_structure, measurement_unit, numeric_result
measured = [
    ("COc1ccc2c(O[C@@H]3C[C@H]4C(=O)N[C@]5(C(=O)NS(=O)(=O)C6CC6)C[C@H]5/C=C\\CCCCN(C)C(=O)[C@@H]4C3)cc(-c3nc(C(C)C)cs3)nc2c1C", "h", 4),
]

----------
- System: Hepatitis C virus
- test_protocol: Antiviral activity against Hepatitis C virus in presence of 1 mg/ml alpha-1 acid glycoprotein and 40 mg/ml human serum albumin
pEC50: −log10 of the molar value.
property: pEC50

# chemical_structure, assayed_system, numeric_result
data = [
    ("COc1ccc2c(O[C@@H]3C[C@H]4C(=O)N[C@]5(C(=O)NS(=O)(=O)C6CC6)C[C@H]5/C=C\\CCCCN(C)C(=O)[C@@H]4C3)cc(-c3nc(C(C)C)cs3)nc2c1C", "Hepatitis C virus", 7.84),
]
